Test system: Klebsiella pneumoniae NDM-1
assay_text: Meropenem MIC, CLSI broth or agar microdilution, strain entry 6
Type: cell-based
condition_set: strain entry 6, Klebsiella pneumoniae NDM-1; 8 mg/L inhibitor
value_kind: Change in MIC value of meropenem (log2 difference)

Some entries whose results are on file:
NS(=O)(=O)c1ccc(-c2c(C(=O)O)[nH]c3c(Br)csc23)cc1 [Example 14]
−2
C=C(C)c1csc2c(-c3ccc(F)cc3)c(C(=O)O)[nH]c12 [Example 6]
−1

P: CS(=O)(=O)Cc1ccc(-c2c(C(=O)O)[nH]c3c(C4CC4)csc23)cc1Cl [Example 18]
Q: CC(C)c1csc2c(-c3ccc(F)cc3)c(C(=O)O)[nH]c12 [Example 12]
Query: # returns the entry with the larger Change in MIC value of meropenem; inputs P and Q Provide the label of your selected option as the answer.
Result: P
